system: human iPSC neurons and astrocytes treated with 5 μM sAβ42s; experiment: Focused small molecule screen, double culture (neuron, astrocyte), rescue from sAβ42s toxicity, high content imaging; type: cell-based; conditions: 25 μM compound; double culture; 5 μM sAβ42s
Measured % B3T rescue accompanies every entry in the list below.
Form entry: value (%) — number only.

Use these answered entries as a reference point.
Fill in: % B3T rescue on human iPSC neurons and astrocytes treated with 5 μM sAβ42s, entry CN(C)S(=O)(=O)c1ccc2c(c1)/C(=C/c1cc3c([nH]1)CCCC3)C(=O)N2
−37

Fill in: % B3T rescue on human iPSC neurons and astrocytes treated with 5 μM sAβ42s, entry Cc1ccc(S(=O)(=O)/C=C/C#N)cc1
14

Could you now consider this next compound?
Fill in: % B3T rescue on human iPSC neurons and astrocytes treated with 5 μM sAβ42s, entry N#CC(c1ccnc(NCCc2cccnc2)n1)c1nc2ccccc2s1 (stereo not drawn)
11

----------
test system: human iPSC neurons and astrocytes treated with 5 μM sAβ42s; experiment: Focused small molecule screen, double culture (neuron, astrocyte), rescue from sAβ42s toxicity, high content imaging; format: cell-based; details: 6.25 μM compound; double culture; 5 μM sAβ42s
Classify by % MAP2 rescue. Ranges: LOW = under 20%, MID = from 20% up to 40%, HIGH = 40% and over

Band for O=C1Nc2ccc(I)cc2/C1=C/c1cc(Br)c(O)c(Br)c1 ?
LOW

Band for CN(C)S(=O)(=O)c1ccc2c(c1)/C(=C/c1cc3c([nH]1)CCCC3)C(=O)N2 ?
LOW

Band for COC(=O)C1(C)c2[nH]c3ccccc3c2CCN1C(=O)CCl (stereo not drawn) ?
LOW

More entries:
Band for Cc1ccc2c(c1)C(=O)[C@]1(O)CCN(c3ccccc3)C1=N2 [(S)-(−)-Blebbistatin] ?
MID

----------
tested on: human iPSC neurons and astrocytes treated with 5 μM sAβ42s; assay: Focused small molecule screen, double culture (neuron, astrocyte), rescue from sAβ42s toxicity, high content imaging; format: cell-based; details: 25 μM compound; double culture; 5 μM sAβ42s
Where a SMILES comes first, the peptide text is derived from it. [ ]: non-standard residue; d: D form. Nle = CCCC[C@H](N)C(=O)O
Measured % B3T rescue accompanies every entry in the list below.
Form entry: value (%) — number only.

Respond only with % B3T rescue recorded for CCCC[C@@H](C=O)NC(=O)[C@H](CC(C)C)NC(=O)[C@H](CC(C)C)NC(C)=O [Ac-Leu-Leu-Nle-CHO] (Ac-Leu-Leu-[Nle]-aldehyde)
−11

More entries:
Respond only with % B3T rescue recorded for C=C[C@@]1(C)CC(=O)[C@]2(O)[C@@]3(C)[C@@H](O)CCC(C)(C)[C@@H]3[C@H](OC(=O)CCN(C)C)[C@H](OC(C)=O)[C@@]2(C)O1.Cl
35

Respond only with % B3T rescue recorded for COC(=O)C1(C)c2[nH]c3ccccc3c2CCN1C(=O)CCl (stereo not shown)
−46

Respond only with % B3T rescue recorded for O=C1Nc2ccc(I)cc2/C1=C/c1cc(Br)c(O)c(Br)c1
14

Respond only with % B3T rescue recorded for CCN(CC)CCNC(=O)c1c(C)[nH]c(/C=C2\C(=O)Nc3ccc(F)cc32)c1C
−19

Respond only with % B3T rescue recorded for O=C1Nc2ccc3ncsc3c2/C1=C/Nc1ccc(S(=O)(=O)Nc2ccccn2)cc1
31

Respond only with % B3T rescue recorded for Cc1ccc2c(c1)C(=O)[C@]1(O)CCN(c3ccccc3)C1=N2 [(S)-(−)-Blebbistatin]
38

----------
system: human iPSC neurons, astrocytes and microglia treated with 5 μM sAβ42s; test: Focused small molecule screen, triple culture (neuron, astrocyte, microglia), rescue from sAβ42s toxicity; format: cell-based; settings: Homo sapiens, iPSC, 0.78 μM compound, read-out: % Synapse rescue
Structures can show the parent of a compound that is named as a salt.
Label yes (1) when percent rescue from sAβ42s toxicity at 0.78 µM >= 20%; otherwise no (0).

Has COc1cc([C@@H]2c3cc4c(cc3[C@@H](O[C@@H]3O[C@@H]5CO[C@@H](c6cccs6)O[C@H]5[C@H](O)[C@H]3O)[C@H]3COC(=O)[C@H]23)OCO4)cc(OC)c1O [Teniposide] a recorded percent rescue from sAβ42s toxicity at 0.78 µM greater than or equal to 20%?
no (0)

Has N#Cc1ccnc(Nc2cc(C3CCN(C4COC4)CC3)cc(N3CCC(F)(F)C3)n2)c1 [GNE-3511] a recorded percent rescue from sAβ42s toxicity at 0.78 µM greater than or equal to 20%?
yes (1)

Has Oc1ccc(C=Cc2cc(O)cc(O)c2)cc1 [Resveratrol] a recorded percent rescue from sAβ42s toxicity at 0.78 µM greater than or equal to 20%?
yes (1)

Has O=C(NOC[C@H](O)CO)c1ccc(F)c(F)c1Nc1ccc(I)cc1F [PD0325901] a recorded percent rescue from sAβ42s toxicity at 0.78 µM greater than or equal to 20%?
no (0)

Has COc1cccc2c1C(=O)c1c(O)c3c(c(O)c1C2=O)C[C@@](O)(C(C)=O)C[C@@H]3O[C@H]1C[C@H](N)[C@H](O)[C@H](C)O1 [Daunorubicin hydrochloride] a recorded percent rescue from sAβ42s toxicity at 0.78 µM greater than or equal to 20%?
yes (1)

More entries:
Has CN1CCN(CCOc2cc(OC3CCOCC3)c3c(Nc4c(Cl)ccc5c4OCO5)ncnc3c2)CC1 [Saracatinib (AZD0530), Saracatinib] a recorded percent rescue from sAβ42s toxicity at 0.78 µM greater than or equal to 20%?
yes (1)

----------
Measured percent rescue from sAβ42s toxicity at 12.5 µM accompanies every entry in the list below.
test system: human iPSC neurons, astrocytes and microglia treated with 5 μM sAβ42s; experiment: Focused small molecule screen, triple culture (neuron, astrocyte, microglia), rescue from sAβ42s toxicity; format: cell-based; details: Homo sapiens, iPSC, 12.50 μM compound, read-out: % B3T rescue
Where a SMILES comes first, the peptide text is derived from it. The star is where a group is joined. Cbz = O=C(OCc1ccccc1)*
Form entry: value (%) — number only.

Respond only with percent rescue from sAβ42s toxicity at 12.5 µM recorded for Oc1cc2c(cc1O)CN(C(=S)NCCc1ccc(Cl)cc1)CCC2 [Capsazepine]
50

More entries:
Respond only with percent rescue from sAβ42s toxicity at 12.5 µM recorded for N#Cc1ccnc(Nc2cc(C3CCN(C4COC4)CC3)cc(N3CCC(F)(F)C3)n2)c1
82

Respond only with percent rescue from sAβ42s toxicity at 12.5 µM recorded for C=CC[C@@H]1/C=C(\C)C[C@H](C)C[C@H](OC)[C@H]2O[C@@](O)(C(=O)C(=O)N3CCCC[C@H]3C(=O)O[C@H](/C(C)=C/[C@@H]3CC[C@@H](O)[C@H](OC)C3)[C@H](C)[C@@H](O)CC1=O)[C@H](C)C[C@@H]2OC
52

Respond only with percent rescue from sAβ42s toxicity at 12.5 µM recorded for CC(C)C[C@@H](C=O)NC(=O)[C@H](CC(C)C)NC(=O)[C@H](CC(C)C)NC(=O)OCc1ccccc1 [MG-132] (Cbz-Leu-Leu-Leu-aldehyde)
35

----------
tested on: human iPSC neurons and astrocytes treated with 5 μM sAβ42s; assay: Focused small molecule screen, double culture (neuron, astrocyte), rescue from sAβ42s toxicity, high content imaging; type: cell-based; details: Homo sapiens, iPSC; 25 μM compound; double culture; 5 μM sAβ42s; read-out: % MAP2 rescue
Where a name gives a salt, the structure may show the parent alone. Where a SMILES comes first, the peptide text is derived from it. The star is where a group is joined. Cbz = O=C(OCc1ccccc1)*
quantity name: percent rescue from sAβ42s toxicity at 25 µM
Don't forget the unit after the value.

Use these answered entries as a reference point.
Respond only with percent rescue from sAβ42s toxicity at 25 µM recorded for COc1cccc2c1C(=O)c1c(O)c3c(c(O)c1C2=O)C[C@@](O)(C(C)=O)C[C@@H]3O[C@H]1C[C@H](N)[C@H](O)[C@H](C)O1 [Daunorubicin hydrochloride]
-122%

Respond only with percent rescue from sAβ42s toxicity at 25 µM recorded for CCCC[C@@H](C=O)NC(=O)[C@H](CC(C)C)NC(=O)OCc1ccccc1 [Calpeptin]
39%

Respond only with percent rescue from sAβ42s toxicity at 25 µM recorded for CN(C)[C@@H]1C(O)=C(C(N)=O)C(=O)[C@@]2(O)C(O)=C3C(=O)c4c(O)ccc(Cl)c4[C@@H](O)[C@H]3C[C@@H]12 [Demeclocydine hydrochloride, Demeclocycline hydrochloride]
23%

Respond only with percent rescue from sAβ42s toxicity at 25 µM recorded for CN1CCN(CCOc2cc(OC3CCOCC3)c3c(Nc4c(Cl)ccc5c4OCO5)ncnc3c2)CC1 [Saracatinib (AZD0530), Saracatinib]
65%

Respond only with percent rescue from sAβ42s toxicity at 25 µM recorded for CC(C)C[C@@H](C=O)NC(=O)[C@H](CC(C)C)NC(=O)[C@H](CC(C)C)NC(=O)OCc1ccccc1 [MG-132] (Cbz-Leu-Leu-Leu-aldehyde)
26%

More entries:
Respond only with percent rescue from sAβ42s toxicity at 25 µM recorded for O=c1cc(-c2ccc(O)c(O)c2)oc2cc(O)cc(O)c12 [Luteolin]
26%

Respond only with percent rescue from sAβ42s toxicity at 25 µM recorded for N#Cc1ccnc(Nc2cc(C3CCN(C4COC4)CC3)cc(N3CCC(F)(F)C3)n2)c1 [GNE-3511]
49%
